experiment.summary: qHTS assay for small molecule activators of the p53 signaling pathway (AID 651743); note: % of control where 0% means no effect
measurement.context: HCT-116 p53RE-bla, beta-lactamase FRET ratio, 16 h; hits give high values
Results filed as inconclusive are left out.
Reported activation is given for each of the following compounds.
assay.metric: activation (%)

compound	unit.tag	numeric.readout
CCCN(CC)CC1COC2(CCC(C(C)(C)C)CC2)O1 (configuration not stated)	%	-4.98
CC(C)(C)OOC(C)(C)c1ccc(C(C)(C)OOC(C)(C)C)cc1	%	0.499
Cc1cc(Cl)ccc1OC(C)C(=O)O (configuration not stated)	%	-1.95
CCOc1ccc(C(C)(C)COCc2cccc(Oc3ccccc3)c2)cc1	%	-0.0413
N#Cc1cc(Br)c(O)c(Br)c1	%	5.1
C=C(C)CN(CC)c1c([N+](=O)[O-])cc(C(F)(F)F)cc1[N+](=O)[O-]	%	0.904
CCOP(=O)(OCC)OP(=O)(OCC)OCC	%	-6.2

====

Tested on: ICS
experiment.summary: qHTS profiling for inhibitors of Plasmodium falciparum proliferation (AID 504749); note: nearly all actives have a fitted effect of over 60% in size
measurement.context: P. falciparum in erythrocytes, SYBR Green DNA, 72 h; series mostly up to 28.7 µM
Results filed as inconclusive are left out. Calls of active or inactive are those of the source. The call rests on the fitted dose curve; in most records, active means well fitted inhibition curve with a large enough effect; inconclusive means small, poorly fitted or top-dose-only effect; inactive means flat fitted curve, though single readings scatter.
Classes used: Y (active), N (inactive)

compound	assigned.class
C=C1Nc2ccccc2C(=O)N1c1ccccc1C	N
CC(Cc1ccccc1)N(C)C (stereo not drawn)	N
CN(C)C1C(=O)C(C(N)=O)C(=O)C2(O)C(=O)C3C(=O)c4c(O)cccc4C(C)(O)C3C(O)C12 (stereo not drawn)	Y

====

system: Tumor necrosis factor (Homo sapiens) (UniProt P01375)
Sequence (P01375 whole entry, looked up): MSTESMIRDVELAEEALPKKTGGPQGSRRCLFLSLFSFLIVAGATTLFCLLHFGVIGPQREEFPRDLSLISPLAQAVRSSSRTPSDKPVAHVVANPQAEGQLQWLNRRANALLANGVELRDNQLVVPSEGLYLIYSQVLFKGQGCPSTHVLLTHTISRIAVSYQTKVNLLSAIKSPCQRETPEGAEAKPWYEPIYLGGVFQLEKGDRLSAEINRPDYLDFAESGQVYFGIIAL
experiment.summary: qHTS assay to identify small molecules that stimulate Tumor Necrosis Factor-alpha (TNF-alpha) secretion (AID 651757)
measurement.context: Human cells, HTRF 665/615 ratio; series mostly up to 92.2 µM
Results filed as inconclusive are left out. Active and inactive are the calls of the source. The call rests on the fitted dose curve; in most records, active means well fitted curve in the direction sought with a large enough effect in the signal ratio; inconclusive means small, poorly fitted or top-dose-only effect, or a change in a side signal; inactive means no such curve, though single readings can be large or run the other way; the % refers to the signal ratio.
Classes used: active, inactive

molecule	assigned.class
C#CCO	inactive
O=C1C2(Cl)C3(Cl)C4(Cl)C(Cl)(Cl)C5(Cl)C3(Cl)C1(Cl)C5(Cl)C24Cl (stereo not drawn)	inactive
ClC1=C(Cl)C2(Cl)C3C(Cl)C(Cl)CC3C1(Cl)C2(Cl)Cl (stereo not drawn)	inactive
O=C(O)C1C(C(=O)O)C2(Cl)C(Cl)=C(Cl)C1(Cl)C2(Cl)Cl (stereo not drawn)	inactive
O=[N+]([O-])c1cc(C(F)(F)F)cc([N+](=O)[O-])c1Cl	inactive
[CH3][Hg][Cl]	inactive
c1ccc2cc3c(cc2c1)-c1cccc2cccc-3c12	inactive
[Cd+2].[Cl-].[Cl-]	inactive
CCCCCCCCn1sccc1=O	inactive
N#CC(Cl)Cl	inactive
O=C(CCl)c1ccccc1	inactive
FC(F)(F)c1ccc(Cl)cc1	inactive
c1ccc2c(c1)c1cccc3ccc4cccc2c4c31	active

====

System: PAD
experiment.summary: qHTS profiling for inhibitors of Plasmodium falciparum proliferation (AID 504749); note: nearly all actives have a fitted effect of over 60% in size
measurement.context: P. falciparum in erythrocytes, SYBR Green DNA, 72 h; series mostly up to 28.7 µM
Inconclusive results are not listed. Active and inactive are the calls of the source. Calls follow the shape of the dose curve; as a rule, active = well fitted inhibition curve with a large enough effect; inconclusive = small, poorly fitted or top-dose-only effect; inactive = flat fitted curve, though single readings scatter.
Classes used: T = active, F = inactive

molecule	assigned.class
CCCC(C)C1(CC)C(=O)NC(=S)NC1=O (stereo not given)	F
CCCCCc1cc(O)c2c(c1)OC(C)(C)C1CC=C(C)CC21 (stereo not given)	T
CC12CCC3C4CCC(=O)C(O)=C4CCC3C1CCC2OC(=O)CCC1CCCC1 (stereo not given)	F
C[C@]12CC[C@H]3[C@@H](CC[C@@]45O[C@@H]4C(=O)C(C#N)C[C@]35C)[C@@H]1CC[C@@H]2O (stereo not given in full)	F
C=C1Nc2ccccc2C(=O)N1c1ccccc1C	F
CCOC(=O)c1cncn1[C@@H](C)c1ccccc1	F
COc1ccc2c3c1O[C@H]1[C@@H](O)C=C[C@H]4C(C2)NCCC341 (stereo not given in full)	F
CC(=O)Oc1ccc2c3c1OC1[C@@H](OC(C)=O)C=C[C@H]4[C@H](C2)N(C)CC[C@]314 (stereo not given in full)	F
OC[C@@H](O)[C@H]1O[C@@H]2OC(C(Cl)(Cl)Cl)O[C@H]2[C@H]1O (stereo not given in full)	F
C#C[C@]1(O)CC[C@H]2[C@@H]3CCC4=CC(=O)CCC4(C)[C@H]3CCC21C (stereo not given in full)	F
